test system: HS 578T breast; assay: NCI tumour cell line growth inhibition, 48 h
REPORTED_PROPERTY: log10 of TGI (log10 of the value in µM)
Please interpret these as log10 of TGI where TGI is in µM.

-- ask Param item = Cc1cc(O)c2c(c1)CC(O)C1=C2C(=O)c2c(O)ccc(OC3CC(O)C(OC4CC(OC5CCC(O)C(C)O5)C(O)C(C)O4)C(C)O3)c2C1=O (stereo not given) ; retrieve measured log10 of TGI.
-- reply 0.80

-- ask Next molecule up: `COc1ccc2c(c1)C(=O)c1c-2c(NCCN(C)C)nc2ccccc12`
-- reply 1.43

-- ask Next molecule up: `COc1ccc2nc(-c3cc4c([nH]c5ccccc54)c(-c4ccc(F)c(F)c4)n3)[nH]c2c1`
-- reply 1.62

-- ask Next molecule up: `O=C(COc1ccc(Cl)cc1Cl)N/N=C/C=C/c1ccc([N+](=O)[O-])o1`
-- reply 0.87

-- ask Next molecule up: COc1ccc(C(SCC(N)C(=O)O)(c2ccc(OC)cc2)c2ccc(OC)cc2)cc1 (stereo not given)
-- reply 1.29

-- ask Next molecule up: `O=[N+]([O-])c1ccc(C(=Nc2ccccc2)SSC(=Nc2ccccc2)c2ccc([N+](=O)[O-])o2)o1`
-- reply 0.73

-- ask Next molecule up: `CCOC(=O)N1C=CC(=C2C(=C3C=CN(C(=O)OCC)C=C3)C(=C3C=CN(C(=O)OCC)C=C3)C2=C2C=CN(C(=O)OCC)C=C2)C=C1`
-- reply 1.93

-- ask Next molecule up: `O=S(=O)(Nc1ccccn1)c1ccc(N=Nc2ccc(O)c3ncccc23)cc1`
-- reply 0.95

-- ask Next molecule up: Cc1nc2sc(C(=O)Nc3cccc(Br)c3)c(N)c2cc1C(O)c1ccccc1 (stereo not given)
-- reply 0.96

-- ask Next molecule up: `O=C(O)c1ccccc1Nc1ccc2nnc(-c3ccncc3)n2n1`
-- reply 1.73
